Target Or System: DENV-2 NS2B/NS3pro (Dengue virus type 2, UniProt P14340)
Construct: pQE30.CF40.gly(T).NS3pro expression plasmid; 6x-His (N); glycine linker (gly(T)) joining CF40 to NS3pro (C); made in house; host or cells: Escherichia coli strain XL1-Blue
Sequence (P14340 1398-1437): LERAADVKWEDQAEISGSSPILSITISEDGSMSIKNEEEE
Sequence (P14340 1476-1653): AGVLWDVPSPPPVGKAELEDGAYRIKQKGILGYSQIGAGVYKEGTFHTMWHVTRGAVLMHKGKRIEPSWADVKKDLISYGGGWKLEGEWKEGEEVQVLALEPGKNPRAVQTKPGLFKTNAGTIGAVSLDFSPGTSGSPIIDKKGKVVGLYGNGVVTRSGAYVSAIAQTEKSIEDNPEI
Assay Info: DENV-2 NS2B/NS3pro protease inhibition assay (fluorogenic Boc-GRR-MCA substrate)
Type: biochemical
Study Conditions: six newly designed compounds, Table 3; 3 μM protease, 25 μM substrate; read-out: IC50
Recorded Metric: IC50
Please answer using a numeric value trailed by its unit.

# example entries with known answers
structure_string=CC(C)Cn1cnc2c(SCc3cccc4ccccc34)nc(N)nc21 target_or_system="DENV-2 NS2B/NS3pro (Dengue virus type 2, UniProt P14340)" result="258 µM"
structure_string=CCC(=O)Nc1nc(SC(=O)CC)c2nc[nH]c2n1 target_or_system="DENV-2 NS2B/NS3pro (Dengue virus type 2, UniProt P14340)" result="97 µM"
structure_string=CC(C)C(=O)Nc1nc(SC(=O)C(C)C)c2nc[nH]c2n1 target_or_system="DENV-2 NS2B/NS3pro (Dengue virus type 2, UniProt P14340)" result="80 µM"
structure_string=CCCCC(=O)Nc1nc(SC(=O)CCCC)c2nc[nH]c2n1 target_or_system="DENV-2 NS2B/NS3pro (Dengue virus type 2, UniProt P14340)" result="0.38 µM"
structure_string=CCCCC(=O)Nc1nc(SCc2ccccc2)c2nc[nH]c2n1 target_or_system="DENV-2 NS2B/NS3pro (Dengue virus type 2, UniProt P14340)" result="54 µM"

Complete the entry with IC50 for CCCCC(=O)Nc1nc(SCc2ccccc2)c2ncn(Cc3ccccc3)c2n1
16 µM

----------
// IC50 lookup, one value per entry
Target Or System: DENV-2 NS2B/NS3pro (Dengue virus type 2)
Construct: pQE30.CF40.gly(T).NS3pro expression plasmid; 6x-His (N); glycine linker (gly(T)) joining CF40 to NS3pro (C); made in house; host or cells: Escherichia coli strain XL1-Blue
Assay Info: DENV-2 NS2B/NS3pro protease inhibition assay (fluorogenic Boc-GRR-MCA substrate)
Assay type: biochemical
Study Conditions: TG derivatives, Table 2; 3 μM protease, 25 μM substrate; read-out: IC50
Please respond with the number in µM and leave the unit unwritten.

# example entries with known answers
structure_string=COc1cccc(S(=O)(=O)Nc2nc(S)c3nc[nH]c3n2)c1 quantitative_readout=68
structure_string=COc1ccc(S(=O)(=O)Nc2nc(S)c3nc[nH]c3n2)cc1 quantitative_readout=55

// next item, IC50 requested
Complete the entry with IC50 for Nc1nc2nc[nH]c2c(=S)[nH]1
753
